Where do the numbers come from? From patent US11427548B2.

target_under_test: Androgen Receptor (Homo sapiens, UniProt P10275)
Construct: endogenous in cells; host or cells: VCaP cells
Sequence (P10275 whole entry): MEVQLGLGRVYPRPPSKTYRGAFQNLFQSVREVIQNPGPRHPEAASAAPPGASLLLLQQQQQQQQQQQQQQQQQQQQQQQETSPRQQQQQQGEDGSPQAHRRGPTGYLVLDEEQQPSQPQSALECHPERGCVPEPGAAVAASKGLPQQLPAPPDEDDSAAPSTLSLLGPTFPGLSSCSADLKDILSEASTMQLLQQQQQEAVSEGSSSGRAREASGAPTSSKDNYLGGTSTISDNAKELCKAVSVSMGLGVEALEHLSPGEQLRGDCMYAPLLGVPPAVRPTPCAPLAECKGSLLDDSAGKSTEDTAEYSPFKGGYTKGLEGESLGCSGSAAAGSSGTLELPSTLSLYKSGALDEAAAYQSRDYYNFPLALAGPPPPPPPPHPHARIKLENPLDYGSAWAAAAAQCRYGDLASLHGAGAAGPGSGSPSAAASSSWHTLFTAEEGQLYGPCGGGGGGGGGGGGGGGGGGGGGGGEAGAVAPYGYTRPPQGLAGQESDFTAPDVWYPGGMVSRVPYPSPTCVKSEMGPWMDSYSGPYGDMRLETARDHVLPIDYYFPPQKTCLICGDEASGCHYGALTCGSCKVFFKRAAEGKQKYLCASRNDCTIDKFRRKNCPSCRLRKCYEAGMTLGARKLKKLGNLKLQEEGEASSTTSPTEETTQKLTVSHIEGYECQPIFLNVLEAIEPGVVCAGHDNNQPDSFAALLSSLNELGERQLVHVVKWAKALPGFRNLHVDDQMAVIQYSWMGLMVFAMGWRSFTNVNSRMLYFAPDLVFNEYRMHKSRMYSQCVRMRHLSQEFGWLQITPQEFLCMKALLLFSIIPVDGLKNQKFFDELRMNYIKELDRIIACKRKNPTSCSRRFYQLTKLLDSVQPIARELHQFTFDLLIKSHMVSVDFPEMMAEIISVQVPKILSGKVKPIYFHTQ
test_summary: Androgen Receptor ELISA assay (PathScan AR ELISA) in VCaP cells: AR degradation, Dmax and DC50
Type: cell-based
condition_info: VCaP, read-out: VCaP Dmax (%)
Hi there, I'd appreciate the recorded Dmax for every entry that follows.

Provide measured Dmax value, entry: Cc1ncsc1-c1ccc(CNC(=O)[C@@H]2C[C@@H](O)CN2C(=O)[C@@H](NC(=O)COC(C)CCCOc2ccc(-c3ccc(N4C(=S)N(c5ccc(C#N)c(C(F)(F)F)c5)C(=O)C4(C)C)cc3)cc2)C(C)(C)C)cc1 (stereo in doubt) [Example 148]
> 71%

Find the measured Dmax of Cc1ncsc1-c1ccc(CNC(=O)[C@@H]2C[C@@H](O)CN2C(=O)[C@@H](NC(=O)COC[C@@H](O)[C@H](O)COc2ccc(-c3ccc(N4C(=S)N(c5ccc(C#N)c(C(F)(F)F)c5)C(=O)C4(C)C)cc3)cc2)C(C)(C)C)cc1 and report it.
51 to 70%

---

target_under_test: Androgen Receptor (Homo sapiens, UniProt P10275)
Construct: endogenous in cells; host or cells: VCaP cells
test_summary: Androgen Receptor ELISA assay (PathScan AR ELISA) in VCaP cells: AR degradation, Dmax and DC50
Type: cell-based
condition_info: VCaP, read-out: VCaP Dmax (%)
Please respond with reported Dmax for every item in the list.

Tell me measured Dmax for Cc1cn(-c2ccc([C@H](C)NC(=O)[C@@H]3C[C@@H](O)CN3C(=O)[C@@H](NC(=O)COCCCOCCCCCOc3ccc(N4C(=S)N(c5ccc(C#N)c(C(F)(F)F)c5)C(=O)C4(C)C)cc3)C(C)(C)C)cc2)cn1 [Example 663] please.
< 25%

Respond only with Dmax recorded for Cc1ncoc1-c1ccc([C@H](C)NC(=O)[C@@H]2C[C@@H](O)CN2C(=O)[C@@H](NC(=O)COCCCCOc2ccc(-c3ccc(N4C(=S)N(c5ccc(C#N)c(C(F)(F)F)c5)C(=O)C4(C)C)c(F)c3)cc2)C(C)(C)C)cc1 [Example 138]
> 71%

// fetch Dmax given entry CC(C)(C)[C@H](NC(=O)COCCCCOc1ccc(-c2ccc(N3C(=S)N(c4ccc(C#N)c(C(F)(F)F)c4)C(=O)C3(C)C)cc2)cc1)C(=O)N1C[C@H](O)C[C@H]1C(=O)NCc1ccc(-c2ccn[nH]2)cc1 [Example 122]
> 71%

Report measured Dmax; entry is Cc1ncsc1-c1ccc([C@H](C)NC(=O)[C@@H]2C[C@@H](O)CN2C(=O)[C@@H](NC(=O)CN2CCN(CC3(CNc4ccc(C(=O)N[C@H]5C(C)(C)[C@H](Oc6ccc(C#N)c(C(F)(F)F)c6)C5(C)C)cc4)COC3)CC2)C(C)(C)C)cc1 [Example 686]
26 to 50%

---

target_under_test: Androgen Receptor (Homo sapiens)
Construct: endogenous in cells; host or cells: VCaP cells
test_summary: Androgen Receptor ELISA assay (PathScan AR ELISA) in VCaP cells: AR degradation, Dmax and DC50
Format: cell-based
condition_info: VCaP, VCaP cells; Table 36; read-out: VCaP Dmax (%)
quantity: Dmax

Report measured Dmax; entry is COc1cc(-c2scnc2C)ccc1CNC(=O)C1C[C@@H](O)CN1C(=O)[C@@H](NC(=O)COCCN1CCN(c2ccc(C(=O)N[C@H]3C(C)(C)[C@H](Oc4ccc(C#N)c(Cl)c4)C3(C)C)cn2)CC1)C(C)(C)C (some centres unmarked)
> 71%

Tell us which Dmax value is on record for C/C(=N\OCCN1CCN(CC(=O)N[C@H](C(=O)N2C[C@H](O)C[C@H]2C(=O)N[C@@H](C)c2ccc(-c3scnc3C)cc2)C(C)(C)C)CC1)c1cc(C(=O)N[C@@H](C)Cn2ccc(-c3ccc(C#N)c(Cl)c3)n2)n[nH]1
< 25%

Fill in reported Dmax for this entry: Cc1ncsc1-c1ccc([C@H](C)NC(=O)[C@@H]2C[C@@H](O)CN2C(=O)[C@@H](NC(=O)COCCN2CCN(c3ccc(C(=O)N[C@H]4C[C@@H](Oc5ccc(C#N)c(Cl)c5)C4(C)C)cn3)CC2)C(C)(C)C)cc1
51 to 70%

Return Dmax (reported value) for this compound: Cc1ncsc1-c1ccc([C@H](C)NC(=O)[C@@H]2C[C@@H](O)CN2C(=O)[C@@H](c2cc(OCCN3CCN(c4ccc(C(=O)N[C@H]5C(C)(C)[C@H](Oc6ccc(C#N)c(Cl)c6)C5(C)C)cn4)CC3)no2)C(C)C)cc1
> 71%

Return the recorded Dmax value; entry: COc1cc(C#N)ccc1[C@H](C)NC(=O)[C@@H]1C[C@@H](O)CN1C(=O)[C@@H](NC(=O)CCCCN1CCN(c2ccc(C(=O)N[C@H]3C(C)(C)[C@H](Oc4ccc(C#N)c(Cl)c4)C3(C)C)cn2)CC1)C(C)(C)C
< 25%

Please list Dmax recorded for the compound Cc1ncsc1-c1ccc([C@H](C)NC(=O)C2C[C@@H](O)CN2C(=O)[C@@H](NC(=O)COCCN2C[C@@H](C)N(c3ccc(C(=O)N[C@H]4C(C)(C)[C@H](Oc5ccc(C#N)c(Cl)c5)C4(C)C)cn3)[C@@H](C)C2)C(C)(C)C)cc1 (some centres unmarked)
> 71%

Specify Dmax for CC(C)(C)[C@H](NC(=O)COCCN1CCN(c2ccc(C(=O)N[C@H]3C(C)(C)[C@H](Oc4ccc(C#N)c(Cl)c4)C3(C)C)cn2)CC1)C(=O)N1C[C@H](O)C[C@H]1C(=O)NCc1ccc(C2CCCC2)cc1 and stop.
< 25%

Please supply the value of reported Dmax for the item CC(C)(C)[C@H](NC(=O)COCCN1CCN(c2ccc(C(=O)N[C@H]3C(C)(C)[C@H](Oc4ccc(C#N)c(Cl)c4)C3(C)C)cn2)CC1)C(=O)N1C[C@H](O)C[C@H]1C(=O)NCc1ccc(Cl)cc1
26 to 50%

Item Cc1ncsc1-c1ccc([C@H](CO)NC(=O)C2C[C@@H](O)CN2C(=O)[C@@H](NC(=O)COCCN2CCCN(c3ccc(C(=O)NC4C(C)(C)C(Oc5ccc(C#N)c(Cl)c5)C4(C)C)cn3)CC2)C(C)(C)C)cc1 (some centres unmarked) : provide Dmax
> 71%

Give Dmax for Cc1ncsc1-c1ccc([C@H](C)NC(=O)C2C[C@@H](O)CN2C(=O)C(NC(=O)COC(C)(C)CN2CCN(c3ccc(C(=O)NC4C(C)(C)C(Oc5ccc(C#N)c(Cl)c5)C4(C)C)cn3)CC2)C(C)(C)C)cc1 (some centres unmarked)
51 to 70%

Annotate the compound CC(C)C[C@H](OCCN1CCN(c2ccc(C(=O)N[C@H]3C(C)(C)[C@H](Oc4ccc(C#N)c(Cl)c4)C3(C)C)cn2)CC1)C(=O)N[C@H](C(=O)N1C[C@H](O)C[C@H]1C(=O)NCc1ccc(Cl)cc1)C(C)(C)C with its measured Dmax.
< 25%

Give me measured Dmax, please, for this compound: Cc1ncsc1-c1ccc([C@H](C)NC(=O)[C@@H]2C[C@@H](O)CN2C(=O)[C@@H](NC(=O)COCCCCCNC23CC(C(=O)N[C@H]4C(C)(C)[C@H](Oc5ccc(C#N)c(Cl)c5)C4(C)C)(C2)C3)C(C)(C)C)cc1
26 to 50%

Quick one: give measured Dmax for Cc1ncsc1-c1ccc([C@H](C)NC(=O)[C@@H]2C[C@@H](O)CN2C(=O)[C@@H](NC(=O)CN2CCN(CCCc3ccc(C(=O)N[C@H]4C(C)(C)[C@H](Oc5ccc(C#N)c(Cl)c5)C4(C)C)cc3)CC2)C2COC2)cc1
< 25%

Report Dmax, nothing else, for this compound: Cc1ncsc1-c1ccc([C@H](C)NC(=O)C2C[C@@H](O)CN2C(=O)C(NC(=O)CN2CC3(CC(N4CCN(c5ccc(C(=O)NC6C(C)(C)C(Oc7ccc(C#N)c(Cl)c7)C6(C)C)cn5)CC4)C3)C2)C(C)(C)C)cc1 (some centres unmarked)
26 to 50%

Please report the measured Dmax for Cc1ncsc1-c1ccc([C@H](C)NC(=O)C2C[C@@H](O)CN2C(=O)C(NC(=O)CCC(F)(F)CN2CCN(c3ccc(C(=O)N[C@H]4C(C)(C)[C@H](Oc5ccc(C#N)c(Cl)c5)C4(C)C)cn3)CC2)C(C)(C)C)cc1 (some centres unmarked)
51 to 70%

// Input: CC(C)(C)[C@H](NC(=O)COCCN1CCN(c2ccc(C(=O)N[C@H]3C(C)(C)[C@H](Oc4ccc(C#N)c(Cl)c4)C3(C)C)cn2)CC1)C(=O)N1C[C@H](O)C[C@H]1C(=O)NCc1ccc(C#N)cc1 . Output its Dmax only.
51 to 70%

Given the compound CC[C@H](NC(=O)[C@@H]1C[C@@H](O)CN1C(=O)[C@@H](NC(=O)COCCN1CCN(c2ccc(C(=O)N[C@H]3C(C)(C)[C@H](Oc4ccc(C#N)c(Cl)c4)C3(C)C)cn2)CC1)C(C)(C)C)c1ccc(-c2scnc2C)cc1 , write its reported Dmax.
> 71%
